# assay.notes: MRT in rat
# Assay type: ADME
# study.conditions: in vivo
Can you tell me MRT for the items I'm about to list?
A complete answer gives the number and then names the unit.

Use the examples below as a reference point.
Nc1nc2cc(O[C@H]3CC[C@@]4(O)[C@@H]3O[C@@H](n3ccc5c(N)ncnc53)[C@@H]4O)ccc2cc1Br 1.8 h
Cc1ncnc2c1ccn2[C@@H]1O[C@@H]2[C@@H](Oc3ccc4cc(Br)c(N)nc4c3)CC[C@]2(O)[C@H]1O 1.6 h

Lookup result for `Cc1ncnc2c1ccn2[C@@H]1C[C@@H]2[C@H](Cc3ccc4cc(F)c(N)nc4c3)CC[C@]2(O)[C@H]1O` ; measured MRT: 1.3 h
